Tested on: U251 CNS
protocol description: NCI tumour cell line growth inhibition, 48 h
measured parameter: TGI

Below: 3 molecules and their reported TGI.
> print(dat)
                                   molecule  target.or.test.system  measured.parameter  obs.value
1  COc1cc(Nc2nc3cc(N)cc(N)c3nc2-c2ccccc2)cc(OC)c1OC               U251 CNS                 TGI   > 100 µM
2  Fc1cc2[nH]ncc2c2c3c(c(-c4cn[nH]c4C(F)(F)F)nc12)CCCC3               U251 CNS                 TGI   > 100 µM
3   CCCCNC(=O)c1cc2c(cc1Cl)Sc1nccn1S2(=O)=O               U251 CNS                 TGI   > 100 µM

Item: COC[C@@H](N=C1NC(=O)/C(=C/c2ccc3ncccc3c2)S1)c1ccccc1 | TGI: > 25 µM

Lab note: measured TGI of Cc1nc(-n2nc(-c3ccccc3)cc2-c2ccccc2)sc1C(=O)/C=C/c1ccc(/C=C/C(=O)c2sc(-n3nc(-c4ccccc4)cc3-c3ccccc3)nc2C)cc1 was 34.3 µM

Recorded TGI (molecule OC(c1ccc(F)cc1)C(F)(F)c1nc2ccccc2o1 (stereo unspecified) ): > 100 µM

TGI reported for this molecule O=C(N/C(=C\c1ccc(Cl)cc1)c1nc2ccccc2[nH]1)c1ccccc1 : 53.1 µM

// recorded TGI for Cc1cn(C2CC(O)C(COC(=O)c3ccccc3)O2)c(=O)[nH]c1=O (stereo unspecified) : > 100 µM

Field TGI (entry O=c1[nH]c2ccccc2c(=O)n1/N=C/c1ccc(O)cc1 ) reads > 100 µM

// sample C=CCN(c1cc(OCc2ccccc2)c2[nH]cc(C)c2c1)S(C)(=O)=O , its TGI was > 100 µM

Data point: COC(=O)C1CCC(=O)N1CN(C(C)=O)c1ccccc1Cl (stereo unspecified) ; TGI = > 100 µM

The reported value for COC(=O)C(C(=O)C(=O)Nc1c(C)cccc1C)c1cnc2ccccc2n1 (stereo unspecified) in terms of TGI is > 100 µM

Notebook: N#Cc1cccc2c1Nc1ccccc1S2 , TGI read as > 100 µM

Data point: CCN(CC)c1cccc2c1/C(=N/O)CCCC2 ; TGI = > 100 µM

In plain terms, O=C(O)c1ccc(C(=O)c2ccccc2C(=O)O)cc1C(=O)O has a documented TGI of > 100 µM

Per the record, Cc1cc2nc3c4cc(O)ccc4n(CCN(C)C)c3nc2cc1C has TGI of 4.46 µM
